test system: Plasmodium falciparum; assay: Antimalarial activity against chloroquine-sensitive Plasmodium falciparum D10 after 48 hrs; type: functional, organism-based; settings: D10, 48 h
pIC50: −log10 of the molar value.
Use Fulfilled when the recorded pIC50 is no lower than 6; use Not fulfilled when it is lower.

Decide: is the reported value of pIC50 for `C#CCOc1ccc(/C=C/C(C)=O)cc1OC` equal to or greater than 6?
Not fulfilled

Reported pIC50 at or above 6? `COc1cc(/C=C/C(=O)c2ccc(OC)c(OC)c2OC)ccc1OCc1cn([C@H]2C[C@H](n3cc(C)c(=O)[nH]c3=O)O[C@@H]2CO)nn1`
Not fulfilled

I'd appreciate it if you could say whether `COc1cc(/C=C/C(=O)/C=C/c2ccc(Cl)cc2Cl)ccc1OCc1cn(-c2ccnc3cc(Cl)ccc23)nn1` has pIC50 at least equal to 6.
Not fulfilled

Evaluate `COc1cc(C(=O)/C=C/c2ccc(Cl)cc2Cl)ccc1OCc1cn(-c2ccnc3cc(Cl)ccc23)nn1` : pIC50 at minimum 6?
Not fulfilled

Reported pIC50 reaches at least 6 for `COc1cc(C(=O)/C=C/c2ccc(OC)c(OC)c2OC)ccc1OCc1cn(-c2ccnc3cc(Cl)ccc23)nn1` ?
Fulfilled

Record `COc1cc(C(=O)/C=C/c2ccc(F)cc2F)ccc1OCc1cn(-c2ccnc3cc(Cl)ccc23)nn1` ; criterion: pIC50 no lower than 6. Met?
Not fulfilled
